system: Escherichia coli TOP10; test: shrunken log2 fold change of peptide-encoding DNA abundance (4.5 h post-induction vs induction); higher = less antimicrobial activity (less host growth inhibition); conditions: time post-induction: 4.5 h; library: site-saturation at positions 5, 18, 19, 20
recordedMetric: shrunken log2 fold change

>>> print(df.to_string())
               biosequence  measurednumber
0  RRIRKRPPRLPRPRPRPNMEPRP         -0.0503
1  RRIRNRPPRLPRPRPRPFRYPRP          -0.591
2  RRIRMRPPRLPRPRPRPQCYPRP         -0.0225
3  RRIRDRPPRLPRPRPRPHVDPRP            0.07
4  RRIRKRPPRLPRPRPRPPEIPRP           0.131
5  RRIRCRPPRLPRPRPRPLTTPRP           0.729
6  RRIRDRPPRLPRPRPRPPILPRP          -0.147
7  RRIRDRPPRLPRPRPRPLQGPRP           0.287

###

Below is a list of entries, each paired with its recorded shrunken log2 fold change value.
tested on: Escherichia coli TOP10; test: shrunken log2 fold change of peptide-encoding DNA abundance (4.5 h post-induction vs induction); higher = less antimicrobial activity (less host growth inhibition); settings: time post-induction: 4.5 h; library: site-saturation at positions 5, 18, 19, 20
recordedMetric: shrunken log2 fold change

In [3]: df
Out[3]:
                biosequence  measurednumber
 0  RRIRARPPRLPRPRPRPENGPRP         -0.0341
 1  RRIRDRPPRLPRPRPRPLIDPRP          0.0319
 2  RRIRWRPPRLPRPRPRPYIAPRP          -0.825
 3  RRIRARPPRLPRPRPRPKPKPRP           0.936
 4  RRIRKRPPRLPRPRPRPEYYPRP          -0.053
 5  RRIRHRPPRLPRPRPRPMILPRP         -0.0484
 6  RRIRTRPPRLPRPRPRPSHQPRP           0.185
 7  RRIRIRPPRLPRPRPRPFLSPRP          -0.282
 8  RRIRMRPPRLPRPRPRPVPCPRP           0.291
 9  RRIRQRPPRLPRPRPRPKLTPRP         -0.0707
10  RRIRERPPRLPRPRPRPWETPRP            0.11
11  RRIRIRPPRLPRPRPRPQNWPRP          -0.517
12  RRIRIRPPRLPRPRPRPRMYPRP           -0.33
13  RRIRFRPPRLPRPRPRPIMRPRP          0.0101
14  RRIRTRPPRLPRPRPRPTNHPRP          -0.622

###

Below is a list of entries, each paired with its recorded shrunken log2 fold change value.
tested on: Escherichia coli TOP10; test: shrunken log2 fold change of peptide-encoding DNA abundance (4.5 h post-induction vs induction); higher = less antimicrobial activity (less host growth inhibition); details: time post-induction: 4.5 h; library: site-saturation at positions 5, 18, 19, 20;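 also: peptides expressed intracellularly from a pBAD plasmid library in pooled LB shake-flask culture, induced with 0.3% L-arabinose, DNA abundance read by NGS, three biological replicates, DESeq2 with apeglm shrinkage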
recordedMetric: shrunken log2 fold change

                biosequence             recordedmetric  measurednumber
 0  RRIRSRPPRLPRPRPRPGAYPRP  shrunken log2 fold change         -0.0377
 1  RRIRIRPPRLPRPRPRPQSFPRP  shrunken log2 fold change          0.0784
 2  RRIRFRPPRLPRPRPRPGWIPRP  shrunken log2 fold change          0.0799
 3  RRIRVRPPRLPRPRPRPMCNPRP  shrunken log2 fold change          -0.263
 4  RRIRARPPRLPRPRPRPQLEPRP  shrunken log2 fold change            0.63
 5  RRIRFRPPRLPRPRPRPNIMPRP  shrunken log2 fold change          -0.658
 6  RRIRYRPPRLPRPRPRPHSWPRP  shrunken log2 fold change           -0.69
 7  RRIRTRPPRLPRPRPRPTTRPRP  shrunken log2 fold change           0.223
 8  RRIRERPPRLPRPRPRPESQPRP  shrunken log2 fold change          -0.101
 9  RRIRFRPPRLPRPRPRPFYCPRP  shrunken log2 fold change          -0.781
10  RRIRVRPPRLPRPRPRPRRTPRP  shrunken log2 fold change           0.115
11  RRIRPRPPRLPRPRPRPQFQPRP  shrunken log2 fold change          -0.192
12  RRIRMRPPRLPRPRPRPFFFPRP  shrunken log2 fold change           0.365
13  RRIRKRPPRLPRPRPRPNDVPRP  shrunken log2 fold change           0.117
14  RRIRYRPPRLPRPRPRPDPYPRP  shrunken log2 fold change          -0.222
